Assay: antimalarial activity against Dd2 strain (AID 2302);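 further: 0% = DMSO untreated growth and 100% = chloroquine plus artemisinin killed control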
Details: P. falciparum Dd2 in RBCs, LDH growth readout, 72 h; at 2 µM
Calls of active or inactive are those of the source.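 How the source made its calls: active means growth inhibition above 50% at the single 2 µM test dose, taken to imply half-maximal potency below 2 µM; inactive means the rest.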
Mark one answer only. Choices: 1 = active, 0 = inactive

Cc1cccc2[nH]c(-c3ccc(-c4ccc(NC(=O)Nc5ccc(F)c(F)c5F)cc4)cc3)nc12    1

API: the following record is the query input.
Ask | Lab log entry: COc1cc(NC(=O)N2CCc3ccc(OCCC4CCCN4C)cc32)cc(C(F)(F)F)c1 (stereo not given) — outcome as called in the assay?
Reply | 0

====

Assay: antimalarial activity against Dd2 strain (AID 2302);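 further: 0% = DMSO untreated growth and 100% = chloroquine plus artemisinin killed control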
Conditions: P. falciparum Dd2 in RBCs, LDH growth readout, 72 h; at 2 µM
Calls of active or inactive are those of the source.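 Rule for the calls: active = growth inhibition above 50% at the single 2 µM test dose, taken to imply half-maximal potency below 2 µM; inactive = the rest.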
Mark one answer only. Choices: T = active, F = inactive

Example cases with answers are listed next.
CC(C)(C)c1ccc(CN2CCC(NC(=O)c3ccc(-c4cccc(C(F)(F)F)c4)s3)CC2)cc1    T
O=C(N[C@@H](Cc1ccccc1)[C@H](O)CNC1CCCc2ccccc21)c1cc(C2CCCC2)cc(N2CCCC2=O)c1 (some centres undefined)    T
CN1CCN(CCCN(Cc2cccc(-c3cccc(CNCc4ccc5c(c4)OCO5)c3)c2)C(=O)CCC2CCCC2)CC1    T
c1cc(CNCCc2ccncc2)cc(-c2cccc(-c3nc4ccccc4[nH]3)c2)c1    T
Cc1c(-c2cccc(NC(=O)C(C)(C)Oc3ccc(Cl)cc3)c2)nc2ncccn12    T
Cc1ccc(NC(=O)c2ccc(CN3CCCN(Cc4cccc(O)c4)CC3)cc2)cc1C    F

Ask | Lab log entry: Cc1cc(N2CCCC2)nc(Nc2ccc(NC(=O)C(C)Oc3ccccc3)cc2)n1 (centres undefined) — outcome as called in the assay?
Reply | T

Ask | Lab log entry: "CN(C)c1ccc(CN2CCC(NC(=O)c3ccc(-c4ccccc4Cl)s3)CC2)cc1" — outcome as called in the assay?
Reply | F

Ask | Lab log entry: Brc1cc(Br)c2c(c1)C(NCCCNC1CCNc3c(Br)cc(Br)cc31)CCN2 (centres undefined) — outcome as called in the assay?
Reply | F
